Tested on: NCI-H226
Test: NCI tumour cell line growth inhibition, 48 h
Active and inactive are the calls of the source. Rule as the data show it: active = GI50 up to about 1.1 µM and inactive = higher.
// allowed return values: active, inactive

CCOC(=O)C1=C(OC(OCC)C(CC)[Se]c2ccccc2)CCCC1 (centres undefined): inactive
O=C(Cc1ccccc1)N/N=C1\C(=O)Nc2ccccc21: inactive
Cc1cc(C)c2c(c1)CC1(Cc3cc(C)c(C)cc3C1=O)C2=O (centres undefined): inactive
COC(=O)CC1NC(=O)C1C(C)(OC)OC (centres undefined): inactive
O=C(O)C1C2c3ccccc3C(c3ccccc32)C1C(=O)NCC1CC1 (centres undefined): inactive

Here's the next entry for you.
Dear colleague, could you share the recorded outcome for c1ccc(C2=NOC3C4CCC(C4)C23)cc1 (centres undefined) when you have a moment?
inactive

* * *

Tested on: HCT-15
# strict inequality: GI50 < 3 µM yields 1, everything else yields -1

COc1cccc(-c2cc(O)c3cc(N)ccc3n2)c1: -1

Determine if COC1=C2CC(C)CC(OC)C(OC(=O)CN)[C@H](C)/C=C(\C)C(OC(N)=O)C(OC)/C=C\C=C(/C)C(=O)NC(=CC1=O)C2=O (some centres undefined) shows GI50 strictly lower than 3 µM.
1

Next molecule up: "CCOC(=O)CC(=O)C(=O)NN=C1NCCN1"
-1

Next molecule up: CCC(C)C1NC(=O)C(NC(=O)c2c3nc4c(C(=O)NC5C(=O)NC(C(C)CC)C(=O)N6CCCC6C(=O)N(C)CC(=O)N(C)C(C(C)C)C(=O)OC5C)ccc(C)c4oc-3c(C)c(=O)c2O)C(C)OC(=O)C(C(C)C)N(C)C(=O)CN(C)C(=O)C2CCCN2C1=O (centres undefined)
-1

Next molecule up: CCCCCCCCCCC(O)[C@H]1CCC(C2CC[C@H]([C@H](O)CCCCCCCCCCC(O)CC3=CC(C)OC3=O)O2)O1 (some centres undefined)
1

Next molecule up: "O=C(/C=C/c1cc(F)ccc1F)OCCc1ccccc1"
-1

Next molecule up: "Cc1ccc(S(=O)(=O)ON2C(=O)c3cccc4cc([N+](=O)[O-])cc(c34)C2=O)cc1"
-1

Next molecule up: Cc1ccc(S(=O)(=O)NC(=O)NC(Cc2ccc(O)c(O)c2)C(=O)O)cc1 (centres undefined)
-1

Next molecule up: NC(=O)C1CCCN1Cc1ccc2c(c1)OCO2 (centres undefined)
-1

* * *

Measured GI50, listed per entry for reference.
System: RPMI-8226
Experiment: NCI tumour cell line growth inhibition, 48 h
Active and inactive are the calls of the source. Rule as the data show it: active = GI50 up to about 1.1 µM and inactive = higher.

Take a look at these entries with their results.
C=C1C(=O)OC2C3C(=C)[C@@H](OC(C)=O)CC3C(C)=CC(OC(=O)C(C)(O)C(C)OC(C)=O)[C@@H]12 (stereo partly specified): 7.18 µM (inactive)
COC1CC2C3/C(=N/Nc4ccc([N+](=O)[O-])cc4[N+](=O)[O-])CCC2(C)C3C1 (stereo unspecified): 78 µM (inactive)
C[C@H]1C[C@H]2[C@@H]3C(C)(C)O[C@]4(O)C(=O)[C@]5(O)[C@@H](C)CC[C@H]1[C@]25C(=O)[C@]34C: 18.1 µM (inactive)
COC(=O)[C@@H]1C(=O)O[C@@H](c2ccc(OC)c(OC)c2OC)[C@@H]1C(=O)OC.COC(=O)[C@H]1C(=O)O[C@@H](c2ccc(OC)c(OC)c2OC)[C@@H]1C(=O)OC: > 100 µM (inactive)
NC1CCCCC1.O=P(O)(O)C1(P(=O)(O)O)CC1: > 100 µM (inactive)

Need GI50 of "Cc1ccccc1-c1cc(=O)c2cc(C)c(C)c(C(=O)O)c2o1" , thanks.
> 100 µM (inactive)

Next compound up: "CCOC(=O)C(CCN1CCC2(CC1)C(=O)N(C)CN2c1ccccc1)C(=O)OCC"
> 100 µM (inactive)

Next compound up: "O=C(CSCC(=O)N/N=C/c1cccc(O)c1)N/N=C/c1cccc(O)c1"
> 100 µM (inactive)

Next compound up: "CCOC(=O)c1cn2c(n1)sc1cc(OC)ccc12"
4.08 µM (inactive)

Next compound up: "O=c1c2cc(S(=O)(=O)O)ccc2nc(COc2ccc(Oc3ccc(Cl)cc3Cl)cc2)n1C(=S)Nc1ccc(Cl)cc1"
26.9 µM (inactive)

Next compound up: "COc1cc2cnc3c4ccccc4ccc3c2cc1OC"
> 100 µM (inactive)

Next compound up: CC(=O)OC1COC(Nc2ccc(C(C)=O)cc2)C(OC(C)=O)C1OC(C)=O (stereo unspecified)
> 100 µM (inactive)

Next compound up: CCOC(=O)C(Cl)(NC(=O)c1ccc(F)cc1)C(F)(F)F (stereo unspecified)
> 100 µM (inactive)

Next compound up: "O=C(O)c1nn(-c2ccc(Cl)cc2)c2c1C(=O)c1ccccc1C2=O"
> 100 µM (inactive)

Next compound up: NC(=O)C1CCCN1Cc1ccc2c(c1)OCO2 (stereo unspecified)
> 100 µM (inactive)

Next compound up: O=C1c2ccccc2C2C1N2C(=O)C(F)(F)F (stereo unspecified)
> 100 µM (inactive)
